Tested on: Wolbachia pipientis
Assay: Anti-Wolbachia Cell-Based Screen
Assay type: functional
Parameters: scale not given: in the data most compounds retested in dose-response had high values
Conditions: 5 µM
Among all 48,000 compounds or so, about 13,000 (27%) showed an effect of 50% or more. The list shows a part of the results.
Flag rule - Percent Effect less than -10% flags fulfilled; the remaining entries get not fulfilled.

# count of solved cases: 3
{"columns": ["Molecule", "Study system", "Label value"],
 "data": [
  ["Cc1nc(CN2CCC(CNC(=O)NCCC3CCC3)CC2)oc1C", "Wolbachia pipientis", "not fulfilled"],
  ["O=C(c1c[nH]c2ncccc12)N1CCC(COc2ccccc2)CC1", "Wolbachia pipientis", "not fulfilled"],
  ["c1cnn(CC2CN(Cc3csc(C4CCCCC4)n3)CCO2)c1 (centres undefined)", "Wolbachia pipientis", "not fulfilled"]
]}

Confirm or reject: Percent Effect of COc1ccccc1CNC(=O)C(C)N1CC(n2cc(C)cn2)C1 (centres undefined) lies strictly below -10% fulfilled

###

Test system: Wolbachia pipientis
Test: Anti-Wolbachia Cell-Based Screen
Assay type: functional
Parameters: scale not given: in the data most compounds retested in dose-response had high values
Conditions: 5 µM
Among all 48,000 compounds or so, about 13,000 (27%) showed an effect of 50% or more. This is one part of the list.
Recorded Percent Effect, one value per entry.
Answer format: numeric, % implied, no suffix.

{"columns": ["Compound", "Readout kind", "Readout value"],
 "data": [
  ["COCc1cc(CNC(=O)c2c(C)c(C)cc(C)c2C)n[nH]1", "Percent Effect", -1.645],
  ["COc1ccc(C(=O)N2CCCC(CNS(C)(=O)=O)C2)cc1F (stereo unspecified)", "Percent Effect", 1.055],
  ["CCc1nnc2n1CCN(C(=O)c1csc(-c3cnn(C)c3)n1)C2", "Percent Effect", -10.57],
  ["CCN1C(=O)CC(c2cnn(C)c2)C12CCN(C(=O)c1ccc[nH]1)CC2 (stereo unspecified)", "Percent Effect", 13.05],
  ["COCCn1ccc2ccc(C(=O)N3CCN(C(C)=O)CC3)cc21", "Percent Effect", 108.9]
]}

Field Percent Effect (entry COCCN1C(=O)CC(c2cccnc2)C12CCN(C)CC2 (stereo unspecified) ) reads 113.4

// Percent Effect value for CCN1C(=O)CC(c2cccnc2)C12CCN(c1ncc(F)cn1)CC2 (stereo unspecified) : -11.62

The recorded Percent Effect for "CCOC(=O)N1CCN(C(=O)c2ccc3ccn(C)c3c2)CC1" is 0.8286

Entry under test: C[S+]([O-])c1nncn1CC(=O)c1cccc(C(F)(F)F)c1 (stereo unspecified) . Its Percent Effect was -15.18

Value of Percent Effect reported for the compound "CC1CCN(c2ccc3c(-c4ncc(C(=O)O)s4)noc3c2)CC1" is -16.58

Percent Effect reading for "Cc1nc(CN(C)Cc2csc(-c3cccs3)n2)co1" : -5.147

Note to self: Percent Effect recorded for "c1cc(NCc2ccsc2)cc(-c2nnc[nH]2)c1" was -4.767

The recorded Percent Effect for Cc1ccc(Cc2sc(NC(=O)C(C)S(C)(=O)=O)nc2C)cc1 (stereo unspecified) is -9.615

// field: Percent Effect; key: "COC[C@@H]1CC[C@H]2[C@H](CCN2S(=O)(=O)c2ccc(OC)cc2)O1" ; value = -8.82

// sample "O=C(N1CCOCC1)N1CC[C@H]2[C@@H]1CCC(=O)N2c1ccccc1" , its Percent Effect was -0.9647

# Percent Effect of "Cn1ccc2ccc(C(=O)N3CCN(C(=O)N4CCOCC4)CC3)cc21" = 0.8109
